Value source: patent US20180228828A1

- protocolNotes: human bioavailability comparison study, Tablet Formulation 10 vs co-administered single entity products
- Assay type: in vivo
- conditionDescription: human, plasma, oral, Treatment A: co-administered single entity products, equivalent total dose; human plasma, fasted

>  <molecule>
COC(=O)N[C@H](C(=O)N1CCC[C@H]1c1nc(-c2ccc3c(c2)O[C@@H](c2ccccc2)n2c-3cc3cc(-c4c[nH]c([C@@H]5CCCN5C(=O)[C@@H](NC(=O)OC)C(C)C)n4)ccc32)c[nH]1)C(C)C [Compound II]

>  <AUC(0-inf)>
1.84 µM·h

$$$$
>  <molecule>
C=C[C@@H]1C[C@]1(NC(=O)[C@@H]1C[C@@H]2CN1C(=O)[C@H](C(C)(C)C)NC(=O)O[C@@H]1C[C@H]1CCCCCc1nc3ccc(OC)cc3nc1O2)C(=O)NS(=O)(=O)C1CC1 [Compound III, hydrate]

>  <AUC(0-inf)>
0.5 µM·h

$$$$
